Procedure text: Solubility of the compound
# solubility values compiled below
Measured attribute: solubility (µg/mL)

>>> recorded_result("COc1ccc2c(=O)oc3c(OC)cc(CCN(C)C)c4c(=O)oc1c2c34")
21
>>> recorded_result("COC(=O)c1cc(OC(=O)c2ccc(OC)c(O)c2)c(OC)cc1CCN1CCOCC1")
270
>>> recorded_result("COC(=O)c1cc(OC(=O)c2ccc(OC)c(O)c2)c(OC)cc1CCN(C)C")
140
>>> recorded_result("COC(=O)c1cc(OC(=O)c2ccc(OC)c(O)c2)c(OC)cc1CCNc1ccc(F)c(Cl)c1")
61
>>> recorded_result("COC(=O)c1ccc(OC)c(OC(=O)c2cc(O)c(OC)cc2CCN(C)C)c1")
130

---

Test system: Caco-2
Procedure text: Antiproliferative activity against human Caco-2 cells
Format: functional, cell-based
# IC50 values compiled below
Measured attribute: IC50 (nM)

>>> recorded_result("COC(=O)c1cc(OC(=O)c2ccc(OC)c(O)c2)c(OC)cc1CCN1CCOCC1")
52.5
>>> recorded_result("COC(=O)c1ccc(OC)c(OC(=O)c2cc(O)c(OC)cc2CCN(C)C)c1")
3100
>>> recorded_result("COc1ccc2c(=O)oc3c(OC)cc(CCN(C)C)c4c(=O)oc1c2c34 [TASPINE]")
153
>>> recorded_result("COC(=O)c1cc(OC(=O)c2ccc(OC)c(O)c2)c(OC)cc1CCN(C)C")
11000

---

Tested on: A549
Procedure text: Antiproliferative activity against human A549 cells
Assay type: functional, cell-based
Measured attribute: log10 IC50 (log10 of the value in nM)

>>> recorded_result("COC(=O)c1ccc(OC)c(OC(=O)c2cc(O)c(OC)cc2CCN(C)C)c1")
2.05
>>> recorded_result("COC(=O)c1cc(OC(=O)c2ccc(OC)c(O)c2)c(OC)cc1CCN(C)C")
2.66
>>> recorded_result("COC(=O)c1cc(OC(=O)c2ccc(OC)c(O)c2)c(OC)cc1CCNc1ccc(F)c(Cl)c1")
2.26
>>> recorded_result("COc1ccc2c(=O)oc3c(OC)cc(CCN(C)C)c4c(=O)oc1c2c34")
0.62
>>> recorded_result("COC(=O)c1cc(OC(=O)c2ccc(OC)c(O)c2)c(OC)cc1CCN1CCOCC1")
2.20

---

Procedure text: Dissociation constant, pKa
Settings: pH 7.4
Entry flag: 1.0 if pKa reaches 8; 0.0 if it does not.

>>> assigned_category("COC(=O)c1cc(OC(=O)c2ccc(OC)c(O)c2)c(OC)cc1CCN(C)C")
1.0
>>> assigned_category("COC(=O)c1ccc(OC)c(OC(=O)c2cc(O)c(OC)cc2CCN(C)C)c1")
1.0
>>> assigned_category("COC(=O)c1cc(OC(=O)c2ccc(OC)c(O)c2)c(OC)cc1CCN1CCOCC1")
0.0
>>> assigned_category("COC(=O)c1cc(OC(=O)c2ccc(OC)c(O)c2)c(OC)cc1CCNc1ccc(F)c(Cl)c1")
0.0

---

Procedure text: Polar surface area
Settings: pH 7.4
# PSA values compiled below
Measured attribute: PSA (Å2)

>>> recorded_result("COC(=O)c1cc(OC(=O)c2ccc(OC)c(O)c2)c(OC)cc1CCN1CCOCC1")
104
>>> recorded_result("COc1ccc2c(=O)oc3c(OC)cc(CCN(C)C)c4c(=O)oc1c2c34")
74.3
>>> recorded_result("COC(=O)c1cc(OC(=O)c2ccc(OC)c(O)c2)c(OC)cc1CCN(C)C")
94.5
>>> recorded_result("COC(=O)c1cc(OC(=O)c2ccc(OC)c(O)c2)c(OC)cc1CCNc1ccc(F)c(Cl)c1")
103
>>> recorded_result("COC(=O)c1ccc(OC)c(OC(=O)c2cc(O)c(OC)cc2CCN(C)C)c1")
94.5
